system: Pseudomonas aeruginosa; test: Antibacterial activity against Pseudomonas aeruginosa after 12 hrs by MTT assay; type: functional, organism-based
Reported endpoint: log10(IC50) (log10 of the value in µg/mL)

>  <Smiles representation>
O=[N+]([O-])c1cnc(/C=C/c2ccccc2F)n1CCO

>  <log10(IC50)>
0.83

$$$$
>  <Smiles representation>
CN(C)c1ccc(/C=C/c2ncc([N+](=O)[O-])n2CCO)cc1

>  <log10(IC50)>
2.08

$$$$
>  <Smiles representation>
O=[N+]([O-])c1cnc(/C=C/c2ccc(Cl)cc2Cl)n1CCO

>  <log10(IC50)>
1.59

$$$$
>  <Smiles representation>
O=[N+]([O-])c1cnc(/C=C/c2cccc(F)c2)n1CCO

>  <log10(IC50)>
1.23

$$$$
>  <Smiles representation>
O=[N+]([O-])c1cnc(/C=C/c2ccc(F)cc2)n1CCO

>  <log10(IC50)>
0.23

$$$$
>  <Smiles representation>
COc1ccccc1/C=C/c1ncc([N+](=O)[O-])n1CCO

>  <log10(IC50)>
1.31

$$$$
>  <Smiles representation>
O=[N+]([O-])c1cnc(/C=C/c2cccc(Br)c2)n1CCO

>  <log10(IC50)>
1.64

$$$$
>  <Smiles representation>
O=[N+]([O-])c1ccc(/C=C/c2ncc([N+](=O)[O-])n2CCO)cc1

>  <log10(IC50)>
1.19

$$$$
>  <Smiles representation>
CCOC(OCC)c1ccc(/C=C/c2ncc([N+](=O)[O-])n2CCO)cc1

>  <log10(IC50)>
1.85

$$$$
>  <Smiles representation>
O=[N+]([O-])c1cnc(/C=C/c2ccccc2Br)n1CCO

>  <log10(IC50)>
0.88

$$$$
>  <Smiles representation>
O=[N+]([O-])c1cnc(/C=C/c2ccc(OCc3ccccc3)cc2)n1CCO

>  <log10(IC50)>
1.16

$$$$

====

Measured IC50 of individual entries
system: Pseudomonas aeruginosa; test: Antibacterial activity against Pseudomonas aeruginosa after 12 hrs by MTT assay; assay type: functional, organism-based
Reported endpoint: IC50 (µg/mL)

>  <Smiles representation>
O=[N+]([O-])c1cnc(/C=C/c2ccc(Br)cc2)n1CCO

>  <Measured result>
32.2

$$$$
>  <Smiles representation>
O=[N+]([O-])c1cnc(/C=C/c2ccccc2)n1CCO

>  <Measured result>
12.4

$$$$
>  <Smiles representation>
COc1cccc(/C=C/c2ncc([N+](=O)[O-])n2CCO)c1

>  <Measured result>
46.1

$$$$

====

test system: Pseudomonas aeruginosa; test: Antibacterial activity against Pseudomonas aeruginosa after 12 hrs by MTT assay; format: functional, organism-based
Measured IC50 of individual entries
Reported endpoint: IC50 (µg/mL)

>  <Molecule>
CC(C)(S)[C@@H](N)C(=O)O [PENICILLAMINE]

>  <Reported endpoint>
IC50

>  <Measured result>
5.8

$$$$
>  <Molecule>
O=[N+]([O-])c1cnc(/C=C/c2c(F)cccc2Cl)n1CCO

>  <Reported endpoint>
IC50

>  <Measured result>
38.1

$$$$
>  <Molecule>
O=[N+]([O-])c1cnc(/C=C/c2ccc(Cl)cc2)n1CCO

>  <Reported endpoint>
IC50

>  <Measured result>
48.3

$$$$
>  <Molecule>
O=[N+]([O-])c1cnc(/C=C/c2ccccc2Cl)n1CCO

>  <Reported endpoint>
IC50

>  <Measured result>
17.8

$$$$
>  <Molecule>
Cc1ccc(/C=C/c2ncc([N+](=O)[O-])n2CCO)cc1

>  <Reported endpoint>
IC50

>  <Measured result>
2.9

$$$$
>  <Molecule>
O=[N+]([O-])c1cnc(/C=C/c2cccc(Cl)c2)n1CCO

>  <Reported endpoint>
IC50

>  <Measured result>
14.7

$$$$

====

system: Pseudomonas aeruginosa; test: Antibacterial activity against Pseudomonas aeruginosa after 12 hrs by MTT assay; type: functional, organism-based
// assign 1 if IC50 falls strictly below 20 µg/mL, else -1 (ties count as -1)

>  <Smiles representation>
O=[N+]([O-])c1ccccc1/C=C/c1ncc([N+](=O)[O-])n1CCO

>  <Group label>
1

$$$$
>  <Smiles representation>
O=[N+]([O-])c1cnc(/C=C/c2cccc3ccccc23)n1CCO

>  <Group label>
1

$$$$
>  <Smiles representation>
O=[N+]([O-])c1cccc(/C=C/c2ncc([N+](=O)[O-])n2CCO)c1

>  <Group label>
-1

$$$$
>  <Smiles representation>
COc1ccc(/C=C/c2ncc([N+](=O)[O-])n2CCO)cc1

>  <Group label>
-1

$$$$
